Please go through the items and note down their B-score functional assay.
- assayed_target: human NTCP (Homo sapiens, UniProt Q14973)
- Sequence (Q14973 1-349): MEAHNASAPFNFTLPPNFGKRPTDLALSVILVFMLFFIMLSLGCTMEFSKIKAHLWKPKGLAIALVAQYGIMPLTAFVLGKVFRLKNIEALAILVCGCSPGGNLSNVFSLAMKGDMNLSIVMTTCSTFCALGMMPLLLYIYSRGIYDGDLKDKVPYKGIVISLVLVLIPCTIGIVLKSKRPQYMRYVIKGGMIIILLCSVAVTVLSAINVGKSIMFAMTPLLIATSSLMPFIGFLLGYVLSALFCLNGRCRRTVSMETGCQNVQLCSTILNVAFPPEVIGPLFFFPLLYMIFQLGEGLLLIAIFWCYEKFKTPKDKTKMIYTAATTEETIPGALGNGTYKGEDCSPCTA
- method_description: Screening taurocholate uptake assay (96-well, [14C]taurocholate, 10 µM drug)
- experimental_setup: screen, 10 µM drug, taurocholate uptake

[ask] Value lookup for B-score functional assay; key = `CC1=C(C(=O)O)N2C(=O)[C@@H](NC(=O)[C@H](N)c3ccc(O)cc3)[C@H]2SC1`
[reply] -0.032

[ask] Which value of B-score functional assay has been reported for CN[C@@H]1[C@@H](O[C@H]2O[C@H](CO)[C@@H](N)[C@H](O)[C@H]2O)OC2C[C@@H](N)[C@@H](O[C@H]3[C@H](O)[C@@H](O)[C@H](N)C[C@@H]3N)OC2[C@@H]1O (stereo partly drawn) in the records?
[reply] -0.431

[ask] Requested read-out: B-score functional assay. Entry: `CCN(CC)C(=O)/C(C#N)=C/c1cc(O)c(O)c([N+](=O)[O-])c1`
[reply] -0.441
